# MEASURED ON: Pantothenate synthetase (Mycobacterium tuberculosis (strain ATCC 25618 / H37Rv))
# METHOD SUMMARY: Coupled enzyme confirmation of inhibitors against recombinant Mtb PanC (AID 375);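 note: 0% = full reaction with vehicle and 100% = no enzyme background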
# COND: coupled enzyme assay; at 10 µM, active compounds read high
// inhibition lookup, one value per entry
# value in %; strip the unit string

Examples with their reported inhibition follow.
compound=Cc1cccc(N2CCN(C(=O)c3cc4ccccc4oc3=O)CC2)c1C assay_metric=inhibition observed_value=0
compound=O=C(Nc1ccc(Cl)c(Cl)c1)Nc1cc(C(=O)N2CCOCC2)ccc1N1CCCCC1 assay_metric=inhibition observed_value=4
compound="O=C1CC(c2cccc(Cl)c2)CC(O)=C1C=NCCCO (stereo unspecified)" assay_metric=inhibition observed_value=9
compound=COc1ccccc1C(=O)N1CCN(CCc2ccccc2)CC1 assay_metric=inhibition observed_value=6

Please indicate recorded inhibition of Cn1nc(C(C)(C)C)cc1C(=O)NCc1ccc(N2CCCC2=O)cc1 measured with Pantothenate synthetase (Mycobacterium tuberculosis (strain ATCC 25618 / H37Rv)). 0

Please indicate recorded inhibition of Cc1ccc(-n2ncc3c(=O)n(CC(=O)NC4CCCCC4)cnc32)cc1C measured with Pantothenate synthetase (Mycobacterium tuberculosis (strain ATCC 25618 / H37Rv)). 12

----------
# MEASURED ON: Pantothenate synthetase (Mycobacterium tuberculosis (strain ATCC 25618 / H37Rv)) (UniProt P9WIL5)
# Sequence (P9WIL5 whole entry, looked up): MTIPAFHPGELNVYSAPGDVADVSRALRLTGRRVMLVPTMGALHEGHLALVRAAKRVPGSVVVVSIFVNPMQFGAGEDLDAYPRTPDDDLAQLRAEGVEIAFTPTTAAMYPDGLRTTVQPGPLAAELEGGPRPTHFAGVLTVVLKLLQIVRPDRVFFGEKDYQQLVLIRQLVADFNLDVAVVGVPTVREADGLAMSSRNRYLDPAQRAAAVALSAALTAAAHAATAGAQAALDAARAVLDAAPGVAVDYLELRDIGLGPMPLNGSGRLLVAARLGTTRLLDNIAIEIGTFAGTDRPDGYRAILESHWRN
# METHOD SUMMARY: Coupled enzyme confirmation of inhibitors against recombinant Mtb PanC (AID 375);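 note: 0% = full reaction with vehicle and 100% = no enzyme background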
# COND: coupled enzyme assay; at 10 µM, active compounds read high
// inhibition lookup, one value per entry
# value in %; strip the unit string

Examples with their reported inhibition follow.
molecule="Cc1ccc(C2C(C#N)=C(N)Oc3cc4c(cc32)OCO4)cc1 (stereo unspecified)" unit=% observed_value=8
molecule=Cc1nc(-c2cccc(-c3noc(C)n3)c2)no1 unit=% observed_value=0
molecule=c1ccc2c(c1)ccc1nnc(-c3ccc4c(c3)OCO4)n12 unit=% observed_value=2
molecule=CCOC(=O)c1ccc(S(=O)(=O)Nc2cc(C(C)(C)C)no2)cc1 unit=% observed_value=2
molecule=O=C(Nc1ccc(F)cc1)N(Cc1ccco1)Cc1cc2cc3c(cc2[nH]c1=O)OCO3 unit=% observed_value=0
molecule=CCOC(=O)CN1C(=O)C(=O)c2cccc(C)c21 unit=% observed_value=0

Consider the record given below.
Please report the measured inhibition for CCCCN1C(=O)C2C(C(=O)Nc3cccc(OC)c3)C3C=CC2(O3)C1C(=O)NC1CCCCC1C (stereo unspecified) 0

----------
# MEASURED ON: Pantothenate synthetase (Mycobacterium tuberculosis (strain ATCC 25618 / H37Rv)) (UniProt P9WIL5)
# METHOD SUMMARY: Coupled enzyme confirmation of inhibitors against recombinant Mtb PanC (AID 375);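 note: 0% = full reaction with vehicle and 100% = no enzyme background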
# COND: coupled enzyme assay; at 10 µM, active compounds read high
ASSAY METRIC: inhibition (%)
# value in %; strip the unit string

compound=COc1ccc2c(c1)c(CC(=O)OCC(=O)O)c(C)n2C(=O)c1ccc(Cl)cc1 unit=% observed_value=0
compound="CCOC(=O)C(C)C1(O)c2ccccc2-c2ncccc21 (configuration not stated)" unit=% observed_value=0
compound=COc1ccc(NC(=O)CCc2nc(-c3ccccc3F)no2)cc1 unit=% observed_value=0

Please report the measured inhibition for CCOC(=O)C1CCCN(C(=O)c2ccc3c(=O)n(CCOC)c(=S)[nH]c3c2)C1 (configuration not stated) 2

Please report the measured inhibition for CC1(C)CC(=O)C(C=NCc2ccc3c(c2)OCO3)=C(O)C1 5

Please report the measured inhibition for CCCCn1c(SCC(=O)N2CC(=O)Nc3ccccc32)nnc1-c1ccoc1C 3

Please report the measured inhibition for O=C(NCc1ccco1)C1CCN(S(=O)(=O)N2CCC3(CC2)OCCO3)CC1 0

Please report the measured inhibition for Cn1c(=O)c2c(nc(SCc3nn[nH]n3)n2Cc2ccccc2F)n(C)c1=O 0

----------
# MEASURED ON: Pantothenate synthetase (Mycobacterium tuberculosis (strain ATCC 25618 / H37Rv)) (UniProt P9WIL5)
# METHOD SUMMARY: Coupled enzyme confirmation of inhibitors against recombinant Mtb PanC (AID 375);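 note: 0% = full reaction with vehicle and 100% = no enzyme background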
# COND: coupled enzyme assay; at 10 µM, active compounds read high
// inhibition lookup, one value per entry
# value in %; strip the unit string

molecule=CCOC(=O)c1c(C)n(C)c2ccc(OC)c(NC(=O)CCN3CCSCC3)c12 observed_value=2
molecule="COC(=O)c1ccc(N2C(=O)CC(N3CCN(C(=O)c4ccco4)CC3)C2=O)cc1 (stereo unspecified)" observed_value=0
molecule=Cc1cccc(NC(=O)c2cc(NC(=O)c3ccco3)ccc2N2CCCCC2)c1 observed_value=2
molecule=COc1ccc2nc(NC(=O)c3ccoc3C)sc2c1 observed_value=0
molecule="COc1cc2c(c(OC)c1)C(c1ccncc1)CC(=O)N2 (stereo unspecified)" observed_value=0
molecule=CCOC(=O)CSc1nnc2n1C(C)(C)Cc1ccccc1-2 observed_value=3
molecule=CN(C)CC(=O)N1c2ccccc2CCc2ccc(NC(=O)c3ccc(N)cc3)cc21 observed_value=0
molecule="Cc1ccc(C2CC(c3cccc(Br)c3)Nc3nnnn32)cc1 (stereo unspecified)" observed_value=1

Please report the measured inhibition for Cc1cc(NCCN2CCCCC2)n2c(nc3ccccc32)c1C#N 14

Please report the measured inhibition for Cc1cc(S(=O)(=O)n2cnc3ccccc32)c(C)cc1Cl 0

Please report the measured inhibition for CN(C)CCOC(=O)C(c1ccccc1)C1(O)CCCC1 (stereo unspecified) 5

----------
# MEASURED ON: Pantothenate synthetase (Mycobacterium tuberculosis (strain ATCC 25618 / H37Rv))
# METHOD SUMMARY: Coupled enzyme confirmation of inhibitors against recombinant Mtb PanC (AID 375);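 note: 0% = full reaction with vehicle and 100% = no enzyme background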
# COND: coupled enzyme assay; at 10 µM, active compounds read high
ASSAY METRIC: inhibition (%)
# value in %; strip the unit string

compound=Cc1cccn2cc(-c3ccccc3)nc12 assay_metric=inhibition observed_value=0
compound=C/C=C(/C(=C/C)c1ccc(O)cc1)c1ccc(O)cc1 assay_metric=inhibition observed_value=0
compound="COc1ccc(NC(=O)C(C)NS(=O)(=O)c2ccc(NC(C)=O)cc2)cc1Cl (centres undefined)" assay_metric=inhibition observed_value=9
compound=c1ccc2[nH]c(CSc3nnc(-c4ccncc4)o3)nc2c1 assay_metric=inhibition observed_value=4
compound="CCC(C)(C(=O)NC1CCCCC1)N(Cc1ccco1)C(=O)c1cnccn1 (centres undefined)" assay_metric=inhibition observed_value=3
compound=NC(=O)NC(=O)CSc1cccc(C(F)(F)F)c1 assay_metric=inhibition observed_value=0
compound=O=S(=O)(NC1CCCC1)c1ccc(S(=O)(=O)N2CCc3ccccc32)cc1 assay_metric=inhibition observed_value=0
compound=O=C(NCc1cccnc1)c1cn(CCc2ccccc2)nn1 assay_metric=inhibition observed_value=0

Please report the measured inhibition for Cc1nn(-c2ccccc2)c(Cl)c1C(=O)NCC(=O)O 0

Please report the measured inhibition for CCn1nc(C)c(NC(=O)c2cc(Br)ccc2Cl)c1C 15

----------
# MEASURED ON: Pantothenate synthetase (Mycobacterium tuberculosis (strain ATCC 25618 / H37Rv)) (UniProt P9WIL5)
# METHOD SUMMARY: Coupled enzyme confirmation of inhibitors against recombinant Mtb PanC (AID 375);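 note: 0% = full reaction with vehicle and 100% = no enzyme background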
# COND: coupled enzyme assay; at 10 µM, active compounds read high
ASSAY METRIC: inhibition (%)
# value in %; strip the unit string

Examples with their reported inhibition follow.
compound=O=C(COC(=O)CCC(=O)c1cccs1)NCc1ccco1 observed_value=0
compound=CCc1ccccc1NC(=O)CSc1nc2n[nH]c(C)c2c(=N)n1-c1ccc(OC)cc1 observed_value=0
compound=O=C(CS(=O)(=O)Cc1ccccc1)Nc1nc2ccccc2s1 observed_value=0
compound=CCOc1cccc2cc(C(=O)N3CCN(C/C=C/c4ccccc4)CC3)c(=O)oc12 observed_value=0
compound=Nc1nonc1N1CCCCC1 observed_value=0
compound="COc1ccc(C2C(C(=O)N3CCCC3)c3cc(OC)c(OC)cc3C(=O)N2C)cc1 (stereo unspecified)" observed_value=0

Please report the measured inhibition for CCOC(=O)C(C(C)=O)c1nc(C)nc2c1nnn2Cc1ccccc1Cl (stereo unspecified) 0

Please report the measured inhibition for c1ccc(OCc2nc3ccccc3[nH]2)cc1 0

Please report the measured inhibition for O=C(NCC1CCCO1)C1CCN(S(=O)(=O)c2cccc3cccnc23)CC1 (stereo unspecified) 0

Please report the measured inhibition for Cc1cc(Cl)cc2c1NC(=O)[C@]21[C@@H]2C(=O)N(Cc3ccccc3)C(=O)[C@@H]2[C@@H]2CCCN21 6

----------
// inhibition lookup, one value per entry
# MEASURED ON: Pantothenate synthetase (Mycobacterium tuberculosis (strain ATCC 25618 / H37Rv)) (UniProt P9WIL5)
# METHOD SUMMARY: Coupled enzyme confirmation of inhibitors against recombinant Mtb PanC (AID 375);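 note: 0% = full reaction with vehicle and 100% = no enzyme background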
# COND: coupled enzyme assay; at 10 µM, active compounds read high
# value in %; strip the unit string

compound=O=C(Cn1ccc2ccccc2c1=O)Nc1ccc2c(c1)OCO2 assay_metric=inhibition observed_value=6

Please report the measured inhibition for CCn1cc(C(=O)N2CCCC2)c(=O)c2cc(S(=O)(=O)N3CCOCC3)ccc21 0

Please report the measured inhibition for COC(=O)CN1C(=O)C(O)(CC(=O)c2ccc(Cl)cc2)c2ccccc21 (stereo unspecified) 0

Please report the measured inhibition for C=CCOC(=O)CCC(=O)Nc1cc(OC)nc(OC)n1 0

Please report the measured inhibition for CCCN(CCC)c1nc2ccccc2n2c(C)nnc12 4

Please report the measured inhibition for CN(C)CC(O)COc1ccc(-c2ccc(C#N)cc2)cc1 (stereo unspecified) 3

Please report the measured inhibition for CCOC(=O)CSc1nnc([C@H](C)NC(=O)OC(C)(C)C)o1 0
